Listed below are molecules with IC50 for CD73 (Homo sapiens (Human)), each taken from published literature.

COCC(C)(OC[C@H]1O[C@@H](n2nnc3c(N[C@@H]4CCc5ccccc54)nc(Cl)nc32)[C@H](O)[C@@H]1O)P(=O)(O)O (stereo partly drawn)
≤ 100 nM
CC(CO)(OC[C@H]1O[C@@H](n2ncc3c(NC4CCCC4)cc(Cl)nc32)[C@H](O)[C@@H]1O)P(=O)(O)O (stereo partly drawn)
≤ 100 nM
O=P(O)(O)CP(=O)(O)OC[C@H]1O[C@@H](n2cnc3c(Nc4ccc5ccccc5c4)nc(Cl)nc32)C(O)C1O (stereo partly drawn)
10 to 100 nM
NC(=O)c1cc(S(=O)(=O)Nc2ccc(CCNc3nc(N)n4nc(-c5ccco5)nc4n3)cc2)cc(Cl)c1O
110 to 1000 nM
Cc1occc1C(=O)N1CCC(NC(=O)O[C@@H]2CCN(c3cn[nH]c(=O)c3Cl)C2)CC1
1 to 10000 nM

Lookup: IC50 / CD73 (Homo sapiens (Human)) / O=C(N[C@@H]1CC[C@H](NS(=O)(=O)c2ccccc2F)C1)O[C@@H]1CCN(c2cn[nH]c(=O)c2Cl)C1
1 to 10000 nM

Find the measured IC50: item O=P(O)(O)COC[C@H]1O[C@@H](n2ncc3c(NCCC4CC4)nc(Cl)nc32)[C@H](O)[C@@H]1O , target or system CD73 (Homo sapiens (Human)).
≤ 500 nM

Hello, I am looking for reported IC50 with CD73 (Homo sapiens (Human)) for N#CC1(NC(=O)OC2CCCCC2)CCN(c2cn[nH]c(=O)c2Cl)C1 (stereo not drawn) . Could you help?
1 to 10000 nM

State its IC50 on CD73 (Homo sapiens (Human)): Cc1ccc(-c2nc(Cl)nc3c2cnn3[C@@H]2O[C@H](COCP(=O)(O)O)[C@@H](O)[C@H]2O)o1
≤ 500 nM

# returns recorded IC50 (system: CD73 (Homo sapiens (Human))) for O=P(O)(O)CS(=O)(=O)C[C@H]1O[C@@H](n2ncc3c(NC4CCCC4)nc(CO)nc32)[C@H](O)[C@@H]1O
≤ 500 nM
